B1: Mineralocorticoid receptor, residues 600 to 675; numbered along this chain, P08235 (parent)
chain: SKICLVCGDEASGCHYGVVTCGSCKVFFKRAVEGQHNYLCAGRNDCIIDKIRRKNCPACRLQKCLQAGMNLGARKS

Variants of: B1
Assay: abundance fitness (aPCA) (normalised: wild type 0, dead -1); higher = more abundant; growth selection in yeast, the domain comes from the species named
Details: Homo sapiens
Measured abundance fitness accompanies every entry in the list below.

- Mutation label: "K54W"
  abundance fitness: -0.194
- Mutation label: "L65E"
  abundance fitness: 0.031
- Mutation label: "Y38H"
  abundance fitness: -0.059
- Mutation label: "V6K"
  abundance fitness: -0.83
- Mutation label: "Q66A"
  abundance fitness: 0.011
- Mutation label: "S12E"
  abundance fitness: 0.103
- Mutation label: "D45A"
  abundance fitness: -0.067
- Mutation label: "Q66D"
  abundance fitness: 0.018
- Mutation label: "A41M"
  abundance fitness: 0.052
- Mutation label: "D49H"
  abundance fitness: -0.276
- Mutation label: "A41P"
  abundance fitness: -0.116
- Mutation label: "C14T"
  abundance fitness: -0.09
- Mutation label: "N44A"
  abundance fitness: -0.016
- Mutation label: "C14F"
  abundance fitness: -0.146
- Mutation label: "N70E"
  abundance fitness: -0.035
- Mutation label: "L61G"
  abundance fitness: -0.566
- Mutation label: "C64H"
  abundance fitness: -0.821
- Mutation label: "P57A"
  abundance fitness: -0.04
- Mutation label: "R74Y"
  abundance fitness: -0.031
- Mutation label: "H36L"
  abundance fitness: -0.087
- Mutation label: "K2V"
  abundance fitness: -0.142
- Mutation label: "R43I"
  abundance fitness: -0.025
